The measured values listed here are drawn from paper PMC11859184.

# experiment: Ex vivo biodistribution of 177Lu-labeled ligands in PC-3 tumor-bearing mice
# experimental conditions: mouse, testes, intravenous, 100 ug, 1 h pi, blocked (100 µg GRPR antagonist co-injected); read-out: Testes uptake
measured endpoint: tissue uptake at 1 h (%ID/g)
// units = %ID/g; emit number, no label

molecule="CC(C)C[C@H](NC(=O)[C@H](Cc1cnc[nH]1)N(C)C(=O)CNC(=O)[C@@H](NC(=O)[C@H](C)NC(=O)[C@H](Cc1c[nH]c2ccccc12)NC(=O)[C@H](CCC(N)=O)NC(=O)[C@@H](Cc1ccccc1)NC(=O)CN1CCC(NC(=O)CN2CCN(CC(=O)O)CCN(CC(=O)O)CCN(CC(=O)O)CC2)CC1)C(C)(C)C)C(=O)N1CC(F)(F)C[C@H]1C(N)=O [[^177Lu]Lu-LW02060, metal not drawn]" test_result=0.14

Field: next molecule
IN: Identify the reported tissue uptake at 1 h for the following entry. CC(C)C[C@@H](CN1CC(F)(F)C[C@H]1C(N)=O)NC(=O)[C@H](Cc1c[nH]cn1)NC(=O)CN(C)C(=O)[C@@H](NC(=O)[C@H](C)NC(=O)[C@H](Cc1c[nH]c2ccccc12)NC(=O)[C@H](CCC(N)=O)NC(=O)[C@@H](Cc1ccccc1)NC(=O)CN1CCC(NC(=O)CN2CCN(CC(=O)O)CCN(CC(=O)O)CCN(CC(=O)O)CC2)CC1)C(C)C [[^177Lu]Lu-LW02080, metal not drawn]
OUT: 0.22

---

# experiment: Ex vivo biodistribution of 177Lu-labeled ligands in PC-3 tumor-bearing mice
# experimental conditions: mouse, stomach, intravenous, 1 h pi, n = 5; read-out: Stomach uptake
Reported tissue uptake at 1 h values for the following compounds.
// units = %ID/g; emit number, no label

compound="CC(C)C[C@H](NC(=O)[C@H](Cc1cnc[nH]1)N(C)C(=O)CNC(=O)[C@@H](NC(=O)[C@H](C)NC(=O)[C@H](Cc1c[nH]c2ccccc12)NC(=O)[C@H](CCC(N)=O)NC(=O)[C@@H](Cc1ccccc1)NC(=O)CN1CCC(NC(=O)CN2CCN(CC(=O)O)CCN(CC(=O)O)CCN(CC(=O)O)CC2)CC1)C(C)(C)C)C(=O)N1CC(F)(F)C[C@H]1C(N)=O [[^177Lu]Lu-LW02060, metal not drawn]" output_unit=%ID/g test_result=0.29

Field: next compound
IN: Identify the reported tissue uptake at 1 h for the following entry. CC(C)C[C@@H](CN1CC(F)(F)C[C@H]1C(N)=O)NC(=O)[C@H](Cc1c[nH]cn1)NC(=O)CN(C)C(=O)[C@@H](NC(=O)[C@H](C)NC(=O)[C@H](Cc1c[nH]c2ccccc12)NC(=O)[C@H](CCC(N)=O)NC(=O)[C@@H](Cc1ccccc1)NC(=O)CN1CCC(NC(=O)CN2CCN(CC(=O)O)CCN(CC(=O)O)CCN(CC(=O)O)CC2)CC1)C(C)C [[^177Lu]Lu-LW02080, metal not drawn]
OUT: 0.08

---

# experiment: Ex vivo biodistribution of 177Lu-labeled ligands in PC-3 tumor-bearing mice
# experimental conditions: male, NOD.Cg-Rag1^tm1Mom Il2rg^tm1Wjl/SzJ (NRG), mouse, tumor/kidney, iv, total radioactivity, 1 h pi, n = 5; read-out: Tumor/kidney uptake ratio
Reported tissue to tissue ratio at 1 h values for the following compounds.
Just the number.

compound="CC(C)C[C@H](NC(=O)[C@H](Cc1cnc[nH]1)N(C)C(=O)CNC(=O)[C@@H](NC(=O)[C@H](C)NC(=O)[C@H](Cc1c[nH]c2ccccc12)NC(=O)[C@H](CCC(N)=O)NC(=O)[C@@H](Cc1ccccc1)NC(=O)CN1CCC(NC(=O)CN2CCN(CC(=O)O)CCN(CC(=O)O)CCN(CC(=O)O)CC2)CC1)C(C)(C)C)C(=O)N1CC(F)(F)C[C@H]1C(N)=O [[^177Lu]Lu-LW02060, metal not drawn]" measured_endpoint="tissue to tissue ratio at 1 h" test_result=2.65

IN: Identify the reported tissue to tissue ratio at 1 h for the following entry. CC(C)C[C@@H](CN1CC(F)(F)C[C@H]1C(N)=O)NC(=O)[C@H](Cc1c[nH]cn1)NC(=O)CN(C)C(=O)[C@@H](NC(=O)[C@H](C)NC(=O)[C@H](Cc1c[nH]c2ccccc12)NC(=O)[C@H](CCC(N)=O)NC(=O)[C@@H](Cc1ccccc1)NC(=O)CN1CCC(NC(=O)CN2CCN(CC(=O)O)CCN(CC(=O)O)CCN(CC(=O)O)CC2)CC1)C(C)C [[^177Lu]Lu-LW02080, metal not drawn]
OUT: 2.17
